The values you see were collected from patent US20090030015A1.

# measured.on: human E-Selectin-IgG-chimera (Homo sapiens, UniProt P16581)
# Sequence (P16581 22-175 limits assumed, change not shown): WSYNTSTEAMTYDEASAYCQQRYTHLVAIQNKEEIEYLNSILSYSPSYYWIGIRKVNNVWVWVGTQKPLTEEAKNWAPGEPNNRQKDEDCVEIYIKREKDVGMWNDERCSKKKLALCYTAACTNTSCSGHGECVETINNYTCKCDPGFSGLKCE
observation.type: pIC50
Scale note: pIC50 = -log10(concentration in M).

May I ask what pIC50 has been recorded for Cc1oc(-c2ccc(NC(=O)c3cncc(-c4ccc(O)cc4O)c3)cc2)cc1C(=O)O ?
3.32

====

# measured.on: human P-Selectin-IgG-chimera (Homo sapiens, UniProt P16109)
# Sequence (P16109 42-771 limits assumed): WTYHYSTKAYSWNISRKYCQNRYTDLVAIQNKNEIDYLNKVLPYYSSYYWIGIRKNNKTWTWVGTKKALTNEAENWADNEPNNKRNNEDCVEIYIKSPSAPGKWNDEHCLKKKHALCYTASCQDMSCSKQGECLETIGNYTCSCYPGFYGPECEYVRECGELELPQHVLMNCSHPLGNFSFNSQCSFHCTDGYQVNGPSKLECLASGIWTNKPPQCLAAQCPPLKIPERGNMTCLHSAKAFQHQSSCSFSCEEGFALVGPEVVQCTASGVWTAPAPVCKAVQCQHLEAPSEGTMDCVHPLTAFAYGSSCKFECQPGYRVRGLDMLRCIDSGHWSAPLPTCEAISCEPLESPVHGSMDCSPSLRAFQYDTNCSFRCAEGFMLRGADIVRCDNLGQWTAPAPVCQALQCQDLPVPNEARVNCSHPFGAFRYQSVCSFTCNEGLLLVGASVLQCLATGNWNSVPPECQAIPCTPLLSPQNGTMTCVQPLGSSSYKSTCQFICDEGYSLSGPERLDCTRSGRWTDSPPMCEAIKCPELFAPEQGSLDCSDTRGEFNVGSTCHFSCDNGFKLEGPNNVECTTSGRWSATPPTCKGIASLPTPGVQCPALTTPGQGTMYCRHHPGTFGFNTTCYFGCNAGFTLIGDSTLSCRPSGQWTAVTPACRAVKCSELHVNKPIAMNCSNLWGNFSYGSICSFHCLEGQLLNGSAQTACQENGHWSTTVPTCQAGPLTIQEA
# method.notes: Sialyl Lewis X Tyrosine Sulfate Assay (sLex TSA), P-selectin
# Assay type: binding
# test.parameters: sLexTSA, in vitro inhibition at 100 μM
observation.type: P-Selectin [% inhib.] (% inhib.)
A number alone suffices; assume % inhib..

Here is how some compounds turned out for P-Selectin [% inhib.].
Reported P-Selectin [% inhib.] for O=C(CCCNC(=O)c1cc(O)cc(O)c1)Nc1ccc(C(=O)O)cc1 : what is it?
0.5

Same thing, different compound: COC(=O)CCc1cccc(NC(=O)CCCNC(=O)c2cc(O)cc(O)c2)c1
10.6

Lookup Cc1ccc(C(=O)O)cc1NC(=O)CCCNC(=O)c1cc(O)cc(O)c1
1.2

Switching to the query record.
Fill in: P-Selectin [% inhib.] of O=C(CCCNC(=O)c1cc(O)cc(O)c1)NCc1ccc(C(=O)O)cc1 is ___
2.9
